assay: NCI Yeast Anticancer Drug Screen. Data for the bub3 strain (AID 167); conditions: S. cerevisiae bub3 mutant strain, at 50.0 µM
This is part of a sample that, as a whole, favours compounds with a hit. Of some 79,000 tested, about 15% had one in any assay. Calls of active or inactive are those of the source. No stated cut-off is given here; in the data, active means growth inhibition above about 70%; inactive means the rest.
Field 'call' accepts active, inactive

- compound: "CCOC(=O)/C=C/SCCCC(=O)O"
  group: "inactive"
- compound: "CCOC(=O)Cn1c(C)nc2nn(Cc3ccccc3)cc2c1=O"
  group: "inactive"
- compound: "C1=CC2C3CSCC3C1C1CC21 (stereo unspecified)"
  group: "inactive"
- compound: "CC(=O)Nc1cc(Cl)cc2c1[nH]c(=O)c1ccccc12"
  group: "inactive"

Q: What was the test verdict on C1CC2(C34CCC(CC3)C4)CCC1C2 ?
A: inactive

Q: Same for CC(C)=C1C(=O)N(C)C(=O)C1C(N)=O (stereo unspecified)
A: inactive

Q: Can you check Cc1ncc([N+](=O)[O-])cc1C(=O)O next?
A: inactive

Q: Now the same for Cc1cc2c(c3oc(C4(C)OC4C4OC4C)cc(=O)c13)C(=O)c1c(O)c(C3CC(C)(N(C)C)C(O)C(C)O3)cc(C3CC(N(C)C)C(O)C(C)O3)c1C2=O (stereo unspecified)
A: active

Q: Also check CCOC(=O)c1c(C)c2c(n1C)CC/C(=C\N1CCN(c3ccccc3)CC1)C2=O
A: inactive

Q: Then what about the compound Brc1cccc2ccc3ccccc3c12 ?
A: inactive

Q: Follow-up item: O=[N+]([O-])c1ccc(P(=O)(Nc2ccc3ccccc3c2)Nc2ccc3ccccc3c2)cc1
A: inactive
